# Subject of test: Cytochrome P450 1B1 (Homo sapiens, UniProt Q16678)
# Sequence (Q16678 whole entry): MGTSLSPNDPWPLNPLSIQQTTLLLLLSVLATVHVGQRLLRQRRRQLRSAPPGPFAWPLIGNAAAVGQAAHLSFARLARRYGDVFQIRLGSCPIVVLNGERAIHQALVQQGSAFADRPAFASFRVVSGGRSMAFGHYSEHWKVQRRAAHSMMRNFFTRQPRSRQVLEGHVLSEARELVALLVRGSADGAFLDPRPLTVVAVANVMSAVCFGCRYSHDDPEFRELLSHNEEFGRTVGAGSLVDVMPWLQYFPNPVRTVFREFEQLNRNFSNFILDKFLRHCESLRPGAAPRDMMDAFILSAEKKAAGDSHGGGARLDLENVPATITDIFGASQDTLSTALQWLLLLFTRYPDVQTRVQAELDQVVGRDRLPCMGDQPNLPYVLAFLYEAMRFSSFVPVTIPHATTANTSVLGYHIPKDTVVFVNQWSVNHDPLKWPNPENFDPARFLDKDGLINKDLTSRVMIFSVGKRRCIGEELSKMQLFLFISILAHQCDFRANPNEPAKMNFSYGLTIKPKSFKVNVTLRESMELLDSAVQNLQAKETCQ
# Procedure details: Inhibition of recombinant human CYP1B1 using 7-ethyl-0-resorufin as substrate incubated for 30 mins in presence of NADPH by EROD assay
Measure: log10(IC50) (log10 of the value in nM)
For clarity, the numbers are log10 values of IC50 expressed in nM.

Record excerpt, results attached:
{"Smiles record": "CCc1sc(-c2csc(Nc3ccc(N4CCOCC4)cc3)n2)nc1-c1ccncc1", "log10(IC50)": 2.19}
{"Smiles record": "Clc1cc(Cl)cc(Nc2nc(-c3nc(-c4ccccc4Cl)cs3)cs2)c1", "log10(IC50)": 0.82}
{"Smiles record": "Fc1ccccc1-c1csc(-c2csc(Nc3ccc(N4CCOCC4)cc3)n2)n1", "log10(IC50)": 1.11}
{"Smiles record": "COc1cc(Nc2nc(-c3nc(-c4ccccc4)cs3)cs2)cc(OC)c1", "log10(IC50)": 0.59}
{"Smiles record": "C#CCOc1ccccc1-c1csc(-c2csc(Nc3cc(OC)cc(OC)c3)n2)n1", "log10(IC50)": 1.89}

### Prompt Which measured log10(IC50) value corresponds to c1csc(-c2csc(Nc3ccc(Cn4cncn4)cc3)n2)n1 ?
### Response 0.96

### Prompt Looking for the measured log10(IC50) of CCc1sc(-c2csc(Nc3cccc(F)c3)n2)nc1-c1ccccc1 , can you help?
### Response 2.39

### Prompt What does the data say about its log10(IC50)? Entry: c1cc(-c2csc(-c3csc(Nc4ccc(N5CCOCC5)cc4)n3)n2)ccn1
### Response 2.18

### Prompt Requested read-out: log10(IC50). Entry: Cc1sc(-c2csc(Nc3cc(Cl)cc(Cl)c3)n2)nc1-c1ccccc1
### Response 1.37

### Prompt Recorded log10(IC50) for Fc1cccc(Nc2nc(-c3nc(-c4ccccc4)c(-c4ccccc4)s3)cs2)c1 , please?
### Response 2.71

### Prompt Entry COc1cc(Nc2nc(-c3nccs3)cs2)cc(OC)c1 has what log10(IC50)?
### Response -0.92

### Prompt What log10(IC50) value was documented for this molecule, Cc1sc(-c2csc(Nc3cccc(F)c3)n2)nc1-c1ccncc1 ?
### Response 1.87

### Prompt Report log10(IC50) for Clc1cc(Cl)cc(Nc2nc(-c3nc(-c4ccccn4)cs3)cs2)c1 please.
### Response 1.65

###

# Subject of test: CYP1B1 (Homo sapiens, UniProt Q16678)
# Sequence (Q16678 whole entry): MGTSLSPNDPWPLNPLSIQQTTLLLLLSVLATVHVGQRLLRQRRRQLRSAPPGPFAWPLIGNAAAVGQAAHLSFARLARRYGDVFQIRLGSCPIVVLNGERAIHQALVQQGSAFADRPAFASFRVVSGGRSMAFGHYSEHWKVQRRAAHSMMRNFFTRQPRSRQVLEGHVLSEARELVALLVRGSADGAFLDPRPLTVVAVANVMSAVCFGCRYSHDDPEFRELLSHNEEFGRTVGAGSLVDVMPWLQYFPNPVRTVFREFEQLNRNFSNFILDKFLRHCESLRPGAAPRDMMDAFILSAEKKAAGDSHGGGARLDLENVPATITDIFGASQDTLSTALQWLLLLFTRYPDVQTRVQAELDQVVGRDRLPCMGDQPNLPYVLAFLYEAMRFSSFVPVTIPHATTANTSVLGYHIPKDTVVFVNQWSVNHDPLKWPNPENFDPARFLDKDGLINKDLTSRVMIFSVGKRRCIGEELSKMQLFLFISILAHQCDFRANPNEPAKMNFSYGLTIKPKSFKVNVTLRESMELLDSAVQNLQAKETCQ
# Procedure details: Inhibition of recombinant human CYP1B1 assessed as inhibition ratio at 100 nM using 7-ethyl-0-resorufin as substrate incubated for 30 mins in presence of NADPH by EROD assay relative to control
# Applied conditions: recombinant human CYP1B1, probe 7-ethyl-0-resorufin
Measure: inhibition at 0.5 h, 0.1 µM (%)
Kindly answer with a numeric value in %, unit omitted.

{"Smiles record": "Nc1ccc(Nc2nc(-c3nccs3)cs2)cc1", "inhibition at 0.5 h, 0.1 µM (%)": 54}

### Prompt Find the recorded inhibition at 0.5 h, 0.1 µM belonging to c1cc(Nc2nc(-c3nccs3)cs2)c2cccnc2c1 and report it.
### Response 36

### Prompt Sample N#Cc1ccc(Nc2nc(-c3nccs3)cs2)cc1 — what was its inhibition at 0.5 h, 0.1 µM?
### Response 81.5

### Prompt Dear colleague, I am looking for the recorded inhibition at 0.5 h, 0.1 µM of the following compound: COc1cc(Nc2nc(-c3nccs3)cs2)cc(OC)c1
### Response 90.7

### Prompt Recorded inhibition at 0.5 h, 0.1 µM for Clc1ccc(Nc2nc(-c3nccs3)cs2)nc1 , please?
### Response 78.8

###

# Subject of test: Cytochrome P450 1A2 (Homo sapiens)
# Sequence (P05177 whole entry): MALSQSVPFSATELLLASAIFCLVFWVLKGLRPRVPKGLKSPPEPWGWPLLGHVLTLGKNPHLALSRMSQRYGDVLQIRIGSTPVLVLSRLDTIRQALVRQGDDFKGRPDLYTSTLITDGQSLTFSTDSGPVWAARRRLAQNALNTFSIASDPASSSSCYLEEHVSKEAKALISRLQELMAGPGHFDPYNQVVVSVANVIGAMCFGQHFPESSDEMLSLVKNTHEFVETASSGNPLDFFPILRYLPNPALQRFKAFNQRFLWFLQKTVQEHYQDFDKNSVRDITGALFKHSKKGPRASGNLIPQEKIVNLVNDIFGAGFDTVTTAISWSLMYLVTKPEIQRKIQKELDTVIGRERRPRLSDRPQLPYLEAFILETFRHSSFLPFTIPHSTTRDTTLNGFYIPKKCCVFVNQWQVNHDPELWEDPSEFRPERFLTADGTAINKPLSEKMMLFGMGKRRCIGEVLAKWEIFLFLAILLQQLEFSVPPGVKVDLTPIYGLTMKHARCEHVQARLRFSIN
# Procedure details: Inhibition of recombinant human CYP1A2 using 7-ethyl-0-resorufin as substrate incubated for 30 mins in presence of NADPH by EROD assay
In this section, each of the compounds is paired with its reported IC50.
Reply numerically in µM, unit not repeated.

Below: 6 compounds and their reported IC50.
{"Smiles record": "CCc1sc(-c2csc(Nc3cc(OC)cc(OC)c3)n2)nc1-c1ccccc1", "IC50 [µM]": 5.25}
{"Smiles record": "c1cc(-c2csc(-c3csc(Nc4ccc(N5CCOCC5)cc4)n3)n2)ccn1", "IC50 [µM]": 0.312}
{"Smiles record": "c1csc(-c2csc(Nc3ccc4c(c3)OCO4)n2)n1", "IC50 [µM]": 0.0785}
{"Smiles record": "C#CCOc1ccccc1-c1csc(-c2csc(Nc3cc(OC)cc(OC)c3)n2)n1", "IC50 [µM]": 0.916}
{"Smiles record": "Cc1sc(-c2csc(Nc3cc(Cl)cc(Cl)c3)n2)nc1-c1ccccc1", "IC50 [µM]": 0.313}
{"Smiles record": "Clc1cc(Cl)cc(Nc2nc(-c3nccs3)cs2)c1", "IC50 [µM]": 0.0557}

### Prompt Give its IC50 value. Item: Clc1cc(Cl)cc(Nc2nc(-c3nc(-c4ccccn4)cs3)cs2)c1
### Response 5.39

### Prompt # lookup: IC50 of Cc1sc(-c2csc(Nc3ccc(N4CCOCC4)cc3)n2)nc1-c1ccncc1
### Response 1.26

### Prompt Record request: IC50 value, item c1ccc(-c2csc(-c3csc(Nc4ccc(N5CCOCC5)cc4)n3)n2)nc1
### Response 11.7

### Prompt Bench note: what IC50 did Clc1ccc(Nc2nc(-c3nccs3)cs2)cc1 show?
### Response 0.119

### Prompt For COc1cc(Nc2nc(-c3nc(-c4ccccc4Cl)cs3)cs2)cc(OC)c1 , what is its reported IC50?
### Response 1.25

### Prompt Tell me the measured IC50 of Clc1cc(Cl)cc(Nc2nc(-c3nc(-c4cccnc4)cs3)cs2)c1 , please.
### Response 0.227

### Prompt Given COc1cc(/C=C/c2ccc(OC)cc2OC)cc(OC)c1 , state its recorded IC50.
### Response 2.39

### Prompt Which value of IC50 has been reported for CCc1sc(-c2csc(Nc3ccc(N4CCOCC4)cc3)n2)nc1-c1ccncc1 in the records?
### Response 3.45

### Prompt Look at this compound and give its reported IC50. c1ccc(-c2csc(-c3csc(Nc4ccc(N5CCOCC5)cc4)n3)n2)cc1
### Response 2.86

### Prompt Query (compound): Clc1cc(Cl)cc(Nc2nc(-c3nc(-c4ccccc4)c(-c4ccccc4)s3)cs2)c1 ; field requested: IC50
### Response 0.381

### Prompt Item Clc1cc(Cl)cc(Nc2nc(-c3nc(-c4ccncc4)cs3)cs2)c1 has what recorded IC50?
### Response 2.34

### Prompt Data request, read-out IC50, for c1csc(-c2csc(Nc3ccc(Cn4cncn4)cc3)n2)n1
### Response 0.141
